Measured values drawn from BigSolDB 2.1 for this set.

- setup_conditions: in ethanol, 293.25 K

- record_smiles: "COC(=O)/C=C(\\C)N[C@@H](C(=O)[O-])c1ccc(O)cc1.[K+]"
  solubility (mole fraction): 0.000405

====

- setup_conditions: in isopropanol, 303.05 K
assay_endpoint: solubility (mole fraction)

- record_smiles: "COC(=O)/C=C(\\C)N[C@@H](C(=O)[O-])c1ccc(O)cc1.[K+]"
  number: "7.22e-05"

====

- setup_conditions: in isopropanol, 333.35 K

- record_smiles: "COC(=O)/C=C(\\C)N[C@@H](C(=O)[O-])c1ccc(O)cc1.[K+]"
  solubility (mole fraction): 0.000173
